Tested on: Tov112D
assay comment: Primary qHTS to identify gynecologic anti-cancer compounds using libraries of approved drugs and bioactive compounds (AID 1345084); further: nearly all actives have a fitted effect of over 55% in size
setup conditions: Gynecologic cancer cell panel viability, ATPlite luminescence, 48 h; series mostly up to 57.5 µM
Results filed as inconclusive are left out. The source made the active and inactive calls. The call rests on the fitted dose curve; in most records, active means well fitted cell-killing curve with a large enough effect; inconclusive means small, poorly fitted or top-dose-only effect, or effect the other way; inactive means flat fitted curve, though single readings scatter.

| compound | activity change, negative = cytotoxicity |
| --- | --- |
| CC1=CC(=O)C2C(C)(C)CC(O)CC2(C)C1CO (configuration not stated) | inactive |
| CN[C@@H]1[C@@H](O)[C@@H](O[C@@H]2[C@@H](O)[C@H](O[C@H]3O[C@H](CN)[C@@H](O)[C@H](O)[C@H]3O)[C@@H](N)C[C@H]2NC(=O)[C@@H](O)CN)OC[C@]1(C)O | inactive |
| COc1cc(N2CCC(O)CC2)ccc1Nc1cc(Nc2ccccc2S(=O)(=O)C(C)C)c2cc[nH]c2n1 | inactive |
| C=CCc1ccc(O[C@@H]2O[C@H](CO[C@@H]3O[C@@H](C)[C@H](O)[C@@H](O)[C@H]3O)[C@@H](O)[C@H](O)[C@H]2O)cc1 | inactive |
| COC1=CC(=O)O[C@@H](CCc2ccccc2)[C@@H]1O | inactive |
| COc1cc(-c2cccc(O)c2)cc2c1OCO2 | inactive |
| C[C@@H]1CC[C@]2(C(=O)O)CC[C@]3(C(=O)O)C(=CCC4[C@@]5(C)CC[C@H](O[C@@H]6O[C@@H](C)[C@H](O[C@@H]7O[C@H](CO)[C@@H](O)[C@H](O)[C@H]7O)[C@@H](O)[C@H]6O)C(C)(C)C5CC[C@]43C)C2[C@H]1C (some centres not stated) | inactive |
